assaySystem: Tyrosine-protein phosphatase non-receptor type 1 (Homo sapiens, UniProt P18031)
Sequence (P18031 whole entry): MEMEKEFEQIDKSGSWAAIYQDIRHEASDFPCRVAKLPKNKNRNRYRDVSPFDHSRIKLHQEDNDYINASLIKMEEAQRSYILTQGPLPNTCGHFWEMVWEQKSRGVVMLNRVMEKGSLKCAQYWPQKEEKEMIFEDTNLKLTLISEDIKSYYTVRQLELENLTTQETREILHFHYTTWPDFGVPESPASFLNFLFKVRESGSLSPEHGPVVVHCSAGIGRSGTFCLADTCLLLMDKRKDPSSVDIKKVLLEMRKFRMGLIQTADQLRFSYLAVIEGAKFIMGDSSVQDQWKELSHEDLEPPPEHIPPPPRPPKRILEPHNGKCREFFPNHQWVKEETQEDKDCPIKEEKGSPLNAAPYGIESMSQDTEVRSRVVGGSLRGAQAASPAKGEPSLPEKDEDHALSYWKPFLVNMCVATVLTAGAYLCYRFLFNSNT
measurementDescription: Inhibition of PTP1B (unknown origin) using pNPP as substrate preincubated for 10 mins followed by substrate addition for 20 mins by absorbance based analysis
Exam item: assign Yes to entries whose IC50 is below 10 µM and No to entries at or above 10 µM. Note that a value of exactly 10 µM receives No.

Task item: Dear reviewer, please state whether `C/C=C\C(=O)O[C@H]1[C@H](O)c2cc3ccc(=O)oc3cc2OC1(C)C` has IC50 strictly beneath 10 µM.
Reply: Yes

Task item: Further, for `CC(C)=CC(=O)O[C@@H]1c2cc3ccc(=O)oc3cc2OC(C)(C)[C@H]1OC(=O)C=C(C)C` ?
Reply: No

Task item: Further, for `O=C(O)c1cc2ccc(=O)oc2cc1O` ?
Reply: Yes

Task item: Further, for `CO[C@@H]1c2cc3ccc(=O)oc3cc2OC(C)(C)[C@H]1OC(=O)C=C(C)C` ?
Reply: Yes

Task item: Further, for `CC1(C)Oc2cc3oc(=O)ccc3cc2C[C@@H]1O` ?
Reply: No

Task item: Further, for `CC(C)c1cc2cc3ccc(=O)oc3cc2o1` ?
Reply: No

====

measurementDescription: Cytotoxicity against human HEK293 cells assessed as cell survival at 250 uM incubated for 24 hrs by MTT assay
Format: toxicity, cell-based
conditionSummary: read-out: Survival
recordedMetric: viability at 24 h, 250 µM (%)
Please respond with the number in % and leave the unit unwritten.

Task item: // returns reported viability at 24 h, 250 µM for input `Cc1c(C)c2c(C)cc(OCCOC(=O)/C=C/c3ccc(Cl)cc3Cl)cc2oc1=O`
Reply: 81.8

====

assaySystem: Alpha glucosidase (Homo sapiens, UniProt O43451+P10253+P14410+Q2M2H8)
measurementDescription: Inhibition of alpha-glucosidase (unknown origin) using p-NPG as substrate preincubated for 15 mins followed by substrate addition for 30 mins by absorbance based analysis
Format: protein assay
recordedMetric: IC50

Task item: // returns reported IC50 for input `O=C(/C=C/c1ccccc1Cl)OCCOc1ccc2ccc(=O)oc2c1`
Reply: 258.7 µM

Task item: Further, for `O=C(/C=C/c1ccc(Cl)cc1)OCCOc1ccc2ccc(=O)oc2c1` ?
Reply: 283.2 µM

Task item: Further, for `CCCc1cc(=O)oc2cc(OCCOC(=O)/C=C/c3ccc(Cl)cc3Cl)ccc12` ?
Reply: > 300 µM

Task item: Further, for `O=C(/C=C/c1ccc(Br)cc1)OCCOc1ccc2ccc(=O)oc2c1` ?
Reply: 263.2 µM

Task item: Further, for `Cc1cc(OCCOC(=O)/C=C/c2ccc(Cl)cc2Cl)cc2oc(=O)cc(C)c12` ?
Reply: 124.1 µM

Task item: Further, for `O=C(OCCCCOc1ccc2ccc(=O)oc2c1)c1ccc(Cl)cc1Cl` ?
Reply: > 300 µM

Task item: Further, for `COc1cc(/C=C/C(=O)OCCOc2ccc3ccc(=O)oc3c2)ccc1O` ?
Reply: > 300 µM

Task item: Further, for `COc1ccc(/C=C/C(=O)OCCOc2ccc3ccc(=O)oc3c2)cc1Br` ?
Reply: 286.2 µM

Task item: Further, for `CCN(CC)c1ccc(/C=C/C(=O)OCCOc2ccc3ccc(=O)oc3c2)cc1` ?
Reply: > 300 µM

Task item: Further, for `O=C(/C=C/c1cccc(Cl)c1)OCCOc1ccc2ccc(=O)oc2c1` ?
Reply: > 300 µM

Task item: Further, for `O=C(/C=C/c1ccc(Cl)cc1Cl)OCCCOc1ccc2ccc(=O)oc2c1` ?
Reply: > 300 µM

Task item: Further, for `O=C(/C=C/c1cccc(F)c1)OCCOc1ccc2ccc(=O)oc2c1` ?
Reply: > 300 µM
